Task for the reader: assign each of the following binders its reported % Inhibition (nitrites; inhibition of iNOS production by activated CD23+ macrophages).
Biological target: T1, CD23 (FCεRII) on human CD23+ cells (human, UniProt P06734 1-321)
T1 sequence (looked up): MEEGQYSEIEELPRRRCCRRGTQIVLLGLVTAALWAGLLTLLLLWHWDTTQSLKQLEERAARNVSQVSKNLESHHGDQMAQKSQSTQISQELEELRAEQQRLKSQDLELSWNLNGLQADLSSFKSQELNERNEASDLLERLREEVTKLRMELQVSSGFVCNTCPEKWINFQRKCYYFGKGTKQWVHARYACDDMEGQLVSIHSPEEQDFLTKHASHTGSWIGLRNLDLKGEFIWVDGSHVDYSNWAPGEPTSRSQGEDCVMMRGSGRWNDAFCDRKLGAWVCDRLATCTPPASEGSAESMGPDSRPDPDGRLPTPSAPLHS
Assay: cell-based or functional assay
Non-standard residues stand in square brackets, D forms with d. No end group written: not given here. βAla = NCCC(=O)O; Sar = CNCC(=O)O
Write the number in % without appending the unit.

# binder HENWPS [P30K (H E N W P S)] ; its % Inhibition (nitrites; inhibition of iNOS production by activated CD23+ macrophages) = 74

# binder FHENWPT [P30M (F H E N W P T)] ; its % Inhibition (nitrites; inhibition of iNOS production by activated CD23+ macrophages) = 76

# binder cyclo(HENW[Sar]S) (SMILES CN1CC(=O)N[C@@H](CO)C(=O)N[C@@H](Cc2c[nH]cn2)C(=O)N[C@@H](CCC(=O)O)C(=O)N[C@@H](CC(N)=O)C(=O)N[C@@H](Cc2c[nH]c3ccccc23)C1=O) [Compound 398] ; its % Inhibition (nitrites; inhibition of iNOS production by activated CD23+ macrophages) = 74

# binder FHKPWRA [P30G (F H K P W R A)] ; its % Inhibition (nitrites; inhibition of iNOS production by activated CD23+ macrophages) = 55

# binder FHEFWPT [FHEFWPT (p30D)] ; its % Inhibition (nitrites; inhibition of iNOS production by activated CD23+ macrophages) = 68

# binder FHENW[βAla]S [Compound 328] ; its % Inhibition (nitrites; inhibition of iNOS production by activated CD23+ macrophages) = 26

# binder HENWS (cyclic H2T (N-terminus amino group to C-terminus carboxyl group linkage)) [Compound 437] ; its % Inhibition (nitrites; inhibition of iNOS production by activated CD23+ macrophages) = 56

Recorded values, source patent US20080039402A1.
